The measurements presented in this section are drawn from PubChem BioAssay (NCI).

# ASSAY REMARKS: NCI Yeast Anticancer Drug Screen. Data for the mec2-1 strain (AID 157)
# APPLIED CONDITIONS: S. cerevisiae mec2-1 strain, at 50.0 µM
About 79,000 compounds went through this panel and 15% of them were active in at least one assay; those are over-represented in the sample as a whole. The source made the active and inactive calls. Cut-off read from the data, not from the text of the source: active = growth inhibition above about 70%; inactive = the rest.
Could you please pick one outcome from this set? YES (active), NO (inactive)

Reference set, count: 5
{"MOLECULE": "CN1CCN(C(=O)NC2CCCCC2)CC1", "CLASS": "NO"}
{"MOLECULE": "Cc1ccc(NC=O)cc1NC=O", "CLASS": "NO"}
{"MOLECULE": "CC(c1ccccc1)N1COc2cc3c(cc2C1)OCN(C(C)c1ccccc1)C3 (centres undefined)", "CLASS": "NO"}
{"MOLECULE": "Cc1ccc(CO)c(O)c1", "CLASS": "NO"}
{"MOLECULE": "O=C1c2ccccc2C(=O)N1/N=N/N1C(=O)c2ccccc2C1=O", "CLASS": "YES"}

Prompt: How did this test come out for `Cc1cc(=O)c2c(ccc3c(=O)cc(C)[nH]c32)[nH]1` ?
Completion: NO

Prompt: How did this test come out for `O=[N+]([O-])c1ccc(P(=O)(Nc2ccc(Cl)cc2)Nc2ccc(Cl)cc2)cc1` ?
Completion: YES

Prompt: How did this test come out for CCC(=O)Nc1nc2c(ncn2C2OC(COC(=O)CC)C(OC(=O)CC)C2OC(=O)CC)c(=O)[nH]1 (centres undefined) ?
Completion: NO

Prompt: How did this test come out for Cc1ccc(S(=O)(=O)NN=C2CC3C4CCC5C4CC3C25)cc1 (centres undefined) ?
Completion: NO

Prompt: How did this test come out for `CC(C)CN(CC(C)C)/N=C/c1cc([N+](=O)[O-])ccc1O` ?
Completion: NO

Prompt: How did this test come out for `CCOc1ncc(C(=O)c2ccc(C)cc2)c(OCC)n1` ?
Completion: NO

Prompt: How did this test come out for `CC1=C(C(=O)CC(=O)C(=O)Nc2ccc(Cl)cc2Cl)Sc2ccccc2N1` ?
Completion: NO

Prompt: How did this test come out for `O=C1CC2(CCCC2)C(=O)N1c1ccc(O)c(CN2CCCCC2)c1` ?
Completion: NO

Prompt: How did this test come out for CC(C)(C)c1ccc2c(c1)C(O)(C#Cc1ccccc1)c1ccccc1C2(O)C#Cc1ccccc1 (centres undefined) ?
Completion: NO

Prompt: How did this test come out for `N=C(N)SCC(=O)c1ccc([N+](=O)[O-])cc1` ?
Completion: NO

Prompt: How did this test come out for C[N+](C)(C)C1(Cc2ccccc2)c2ccccc2-c2ccc(Cl)cc21 (centres undefined) ?
Completion: NO

Prompt: How did this test come out for CCCCOCCOC(=O)CCCCCC1C=CCCC1 (centres undefined) ?
Completion: NO

Prompt: How did this test come out for CCC(C(CC(=O)c1ccccc1)c1ccccc1)[N+](=O)[O-] (centres undefined) ?
Completion: NO

Prompt: How did this test come out for `COc1ccc(CCCN2c3ccccc3Sc3ccccc32)cc1` ?
Completion: NO

Prompt: How did this test come out for `CC(=O)CC(C)(C)S(=O)(=O)c1ccc(C)cc1` ?
Completion: NO

Prompt: How did this test come out for `CCOC(=O)CCCC(=O)N(CC(=O)OCC)Cc1ccccc1` ?
Completion: NO

Prompt: How did this test come out for `Cc1ccc(S(=O)(=O)NCNS(=O)(=O)c2ccc(C)cc2)cc1` ?
Completion: NO

Prompt: How did this test come out for `C#CCI` ?
Completion: NO

Prompt: How did this test come out for `Cc1cccc(NC(=O)c2cccc([N+](=O)[O-])c2O)c1C` ?
Completion: NO
